B1: ATL3 (parent)
chain: YGLQGGMAFLDKRLQVKEHQHEEI

- Variants of: B1
- procedure_details: protein stability index of a GFP-peptide fusion (GPS, HEK-293T) (PSI 1-6); higher = more stable;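 note: lentivirally expressed fusions sorted by FACS into six bins by GFP to DsRed ratio, PSI derived from sequencing read proportions per bin multiplied by bin number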
- condition_details: c terminus: a fixed tail appended
Parameter threshold = 2. Response is condition met when protein stability index meets or exceeds it, else condition not met.

K12Q    condition not met
M7Q    condition not met
K17S    condition not met
E23K    condition met
L3I    condition met
L14Y    condition met
E18G    condition met
M7C    condition met

**Q:** Item A8F with protein stability index of 2 or above?
**A:** condition met
